recorded_endpoint: IC50 (µM)
Number only, in µM; omit the unit.

Req: Test system UniProt:P08069; read-out IC50; what value for Nc1nc2cnc(-c3ccccc3)cn2n1 ?
Resp: 25

====

biological target: Serine/threonine-protein kinase Chk2 (Homo sapiens, UniProt O96017)
Sequence (O96017 whole entry): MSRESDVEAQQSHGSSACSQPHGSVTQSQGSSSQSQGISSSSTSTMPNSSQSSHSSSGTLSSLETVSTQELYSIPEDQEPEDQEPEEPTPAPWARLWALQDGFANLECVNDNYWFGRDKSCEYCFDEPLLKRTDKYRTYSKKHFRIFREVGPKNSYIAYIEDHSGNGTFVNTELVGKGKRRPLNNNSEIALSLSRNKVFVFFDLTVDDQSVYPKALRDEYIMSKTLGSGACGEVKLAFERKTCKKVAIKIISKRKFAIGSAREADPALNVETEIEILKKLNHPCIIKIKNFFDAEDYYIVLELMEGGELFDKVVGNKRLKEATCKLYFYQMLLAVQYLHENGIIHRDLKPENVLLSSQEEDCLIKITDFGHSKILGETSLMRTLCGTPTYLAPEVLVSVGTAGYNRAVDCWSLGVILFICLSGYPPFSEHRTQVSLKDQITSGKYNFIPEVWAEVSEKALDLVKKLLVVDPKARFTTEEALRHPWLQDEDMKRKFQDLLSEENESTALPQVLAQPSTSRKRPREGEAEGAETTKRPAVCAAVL
recorded_endpoint: pIC50
# pIC50 is unitless: minus log10 of the molar concentration; print number only

Req: Could you share which pIC50 value was measured for Nc1nc2cnc(-c3ccccc3)cn2n1 [Kinase inhibitor, B1] ?
Resp: 4.77

====

biological target: Germinal center kinase MAP4K2 (Homo sapiens); assay: Selected compounds were screened against a panel of mammalian kinases. Compounds were supplied in DMSO and screened in duplicates at 100 uM concentration using a radioactive (33P-ATP) filter-binding-assay.
Please provide measured IC50 for the entries that follow.
Please respond with the number in µM and leave the unit unwritten.

Req: So what IC50 did Nc1cnc2c(-c3c(F)cccc3F)cccn2c1=O get with Germinal center kinase MAP4K2 (Homo sapiens)?
Resp: 4

Req: Param readout = IC50; param system = Germinal center kinase MAP4K2 (Homo sapiens); param query = Nc1nc2cnc(-c3ccccc3)cn2n1 ; response: value
Resp: 6

====

target: Fibroblast growth factor receptor 1 (Homo sapiens, UniProt P11362)
Sequence (P11362 whole entry): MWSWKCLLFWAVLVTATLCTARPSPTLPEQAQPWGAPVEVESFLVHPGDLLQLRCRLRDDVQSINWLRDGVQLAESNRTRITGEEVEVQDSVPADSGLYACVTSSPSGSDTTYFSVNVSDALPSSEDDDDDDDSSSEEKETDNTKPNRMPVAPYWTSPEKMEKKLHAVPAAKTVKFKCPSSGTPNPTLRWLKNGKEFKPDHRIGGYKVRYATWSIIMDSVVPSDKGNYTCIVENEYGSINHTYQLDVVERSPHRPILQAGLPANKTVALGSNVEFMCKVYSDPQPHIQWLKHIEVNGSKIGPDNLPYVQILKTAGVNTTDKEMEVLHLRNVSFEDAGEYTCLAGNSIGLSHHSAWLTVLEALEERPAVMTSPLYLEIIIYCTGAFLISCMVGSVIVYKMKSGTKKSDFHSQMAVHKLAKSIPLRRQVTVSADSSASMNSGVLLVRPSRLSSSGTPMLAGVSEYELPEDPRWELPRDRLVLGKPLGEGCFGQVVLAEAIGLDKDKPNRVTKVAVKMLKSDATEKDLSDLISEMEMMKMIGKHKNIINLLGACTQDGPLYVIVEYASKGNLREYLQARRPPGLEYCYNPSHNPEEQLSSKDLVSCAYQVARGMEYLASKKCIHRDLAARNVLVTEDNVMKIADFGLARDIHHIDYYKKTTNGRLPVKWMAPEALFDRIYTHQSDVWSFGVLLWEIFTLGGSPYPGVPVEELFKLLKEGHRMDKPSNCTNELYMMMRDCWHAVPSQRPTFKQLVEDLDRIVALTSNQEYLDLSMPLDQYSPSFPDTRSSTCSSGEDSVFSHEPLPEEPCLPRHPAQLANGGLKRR
recorded_endpoint: IC50 (µM)
Just the number please, in µM, no unit attached.

Req: Find the recorded IC50 belonging to CC(C)(C)Nc1c(C2CC2)[nH]c2ncnn12 [Kinase inhibitor, D1] and report it.
Resp: 469

====

For each of the compounds below, state its IC50.
Target: Casein kinase II subunit alpha (Homo sapiens, UniProt P68400)
Sequence (P68400 whole entry): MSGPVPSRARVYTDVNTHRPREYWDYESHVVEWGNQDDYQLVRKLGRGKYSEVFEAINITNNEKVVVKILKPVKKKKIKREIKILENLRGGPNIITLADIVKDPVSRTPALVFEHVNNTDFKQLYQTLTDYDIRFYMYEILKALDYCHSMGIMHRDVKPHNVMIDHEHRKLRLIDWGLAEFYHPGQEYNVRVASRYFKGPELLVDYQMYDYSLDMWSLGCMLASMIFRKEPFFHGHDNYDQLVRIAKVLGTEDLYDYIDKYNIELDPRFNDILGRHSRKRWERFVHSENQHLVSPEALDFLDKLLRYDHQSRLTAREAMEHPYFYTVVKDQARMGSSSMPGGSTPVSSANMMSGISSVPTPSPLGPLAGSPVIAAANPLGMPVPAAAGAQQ
Assay: Kinase Assay
Experimental: Selected compounds were screened against a panel of mammalian kinases. Compounds were supplied in DMSO and screened in duplicates at 100 uM concentration using a radioactive (33P-ATP) filter-binding-assay.

Req: Which IC50 value is on record for CC1CN(c2nc3ccccn3c(=O)c2N)CC(C)O1 (configuration not stated) [Kinase inhibitor, A1] ?
Resp: 18 µM

Req: Which IC50 is listed for Nc1cnc2c(-c3c(F)cccc3F)cccn2c1=O [Kinase inhibitor, A2] ?
Resp: 131 µM

====

recorded_endpoint: IC50 (µM)
Give your result in µM as a bare value.

Req: Checklist item: IC50 tested on UniProt:Q96SB4, entry CC1CN(c2nc3ccccn3c(=O)c2N)CC(C)O1 (stereo unspecified) [Kinase inhibitor, A1] , value?
Resp: 114

====

molecular target: Mitogen-activated protein kinase kinase kinase 7 (Homo sapiens); test: Kinase Assay
Sequence (O43318 whole entry): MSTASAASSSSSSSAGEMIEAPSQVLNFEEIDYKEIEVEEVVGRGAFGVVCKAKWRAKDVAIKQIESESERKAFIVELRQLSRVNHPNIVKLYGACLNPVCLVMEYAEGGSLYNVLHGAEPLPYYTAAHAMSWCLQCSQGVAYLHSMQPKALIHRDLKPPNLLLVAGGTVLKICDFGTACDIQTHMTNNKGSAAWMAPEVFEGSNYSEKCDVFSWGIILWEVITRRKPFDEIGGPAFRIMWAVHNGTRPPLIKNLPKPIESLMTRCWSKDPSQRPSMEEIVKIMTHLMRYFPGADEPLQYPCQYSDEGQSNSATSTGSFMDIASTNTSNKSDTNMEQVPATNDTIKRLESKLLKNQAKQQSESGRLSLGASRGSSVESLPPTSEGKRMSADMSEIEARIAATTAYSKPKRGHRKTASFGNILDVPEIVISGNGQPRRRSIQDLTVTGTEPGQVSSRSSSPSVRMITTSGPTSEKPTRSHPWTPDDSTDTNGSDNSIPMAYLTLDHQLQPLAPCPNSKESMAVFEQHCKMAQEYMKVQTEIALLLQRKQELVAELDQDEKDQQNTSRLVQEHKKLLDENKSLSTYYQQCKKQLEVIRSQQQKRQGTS
Consider the following compounds; for each one, report its IC50.
Note: unit µM is implicit; provide only the numeric part.

Req: Param readout= IC50; system= Mitogen-activated protein kinase kinase kinase 7 (Homo sapiens); entry= Nc1nc2cnc(-c3ccccc3)cn2n1 ; returns value.
Resp: 11

Req: Request: IC50, test system Mitogen-activated protein kinase kinase kinase 7 (Homo sapiens), entry Nc1cnc2c(-c3c(F)cccc3F)cccn2c1=O
Resp: 24

====

target: Cyclin-dependent kinase 2 (Homo sapiens)
recorded_endpoint: IC50 (µM)
Field format: number, assumed µM, no unit text.

Req: # IC50 lookup, item Nc1cnc2c(-c3c(F)cccc3F)cccn2c1=O
Resp: 26

====

Molecular target: Ephrin type-B receptor 3 (Homo sapiens)
Sequence (P54753 whole entry): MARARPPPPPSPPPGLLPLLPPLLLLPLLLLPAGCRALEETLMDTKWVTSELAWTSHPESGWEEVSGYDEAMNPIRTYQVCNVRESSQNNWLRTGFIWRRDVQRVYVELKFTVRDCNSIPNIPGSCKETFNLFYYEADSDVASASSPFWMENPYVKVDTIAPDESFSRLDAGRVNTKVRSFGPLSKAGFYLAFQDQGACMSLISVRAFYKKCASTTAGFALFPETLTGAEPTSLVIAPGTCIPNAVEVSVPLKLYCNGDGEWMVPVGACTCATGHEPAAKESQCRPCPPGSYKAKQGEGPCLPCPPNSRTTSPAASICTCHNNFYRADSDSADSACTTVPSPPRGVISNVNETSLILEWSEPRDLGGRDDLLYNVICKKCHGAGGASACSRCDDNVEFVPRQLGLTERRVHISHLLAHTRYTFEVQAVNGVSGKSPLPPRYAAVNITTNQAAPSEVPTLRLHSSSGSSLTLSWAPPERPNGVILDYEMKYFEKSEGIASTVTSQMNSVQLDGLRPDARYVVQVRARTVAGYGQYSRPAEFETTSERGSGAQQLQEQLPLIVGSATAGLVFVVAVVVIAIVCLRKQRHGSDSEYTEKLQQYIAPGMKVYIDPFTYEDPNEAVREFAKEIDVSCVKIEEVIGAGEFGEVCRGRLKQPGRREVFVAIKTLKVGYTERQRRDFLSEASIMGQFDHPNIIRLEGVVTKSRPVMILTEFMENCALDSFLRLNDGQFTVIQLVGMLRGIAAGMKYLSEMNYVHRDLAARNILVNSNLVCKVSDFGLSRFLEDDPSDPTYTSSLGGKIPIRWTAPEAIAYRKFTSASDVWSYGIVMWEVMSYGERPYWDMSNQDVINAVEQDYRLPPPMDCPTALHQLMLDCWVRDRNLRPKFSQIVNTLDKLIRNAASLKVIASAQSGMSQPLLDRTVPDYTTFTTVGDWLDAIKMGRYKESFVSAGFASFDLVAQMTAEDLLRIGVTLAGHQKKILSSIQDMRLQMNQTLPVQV
recorded_endpoint: IC50 (µM)
Your answer should be a plain number; it is taken to be in µM.

Req: Would you mind telling me what IC50 value was observed for CC(C)(C)Nc1c(C2CC2)[nH]c2ncnn12 [Kinase inhibitor, D1] ?
Resp: 158
